Hey, just so you know, these numbers are from paper PMC9482650.

- assay-target: T1, PDZD2_4, O15018
- T1 sequence (O15018 723-823, limits assumed, looked up): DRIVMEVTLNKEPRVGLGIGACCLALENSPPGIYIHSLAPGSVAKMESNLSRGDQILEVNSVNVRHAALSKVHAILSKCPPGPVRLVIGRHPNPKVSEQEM
- assay-info: holdup assay
- Set-up: key: below the threshold = too weak to quantify, mostly under pKd 3.1 to 4
- cond: plain residues with an end cap or a label only (N-terminal biotin on a linker: ttds)
parameter: pKd

Example entries and their recorded answers appear below.
QRQARSETLV [HPV59-E6, Q81964]; below the threshold
SGSRPSATVV [HPV73-E6, Q82005]; 4.26
RLPKIKETTV [FRMPD4, Q14CM0]; below the threshold
RHTTSTETAV [HPV30-E6, P36809]; 4.78
SSLQSLETSV [ATP2B4, P23634]; below the threshold
RLQRRRETQV [HPV18-E6, P06463]; below the threshold
SKPTRRETEV [HPV35-E6, P27228]; below the threshold

Incoming: Entry under review: RPLPRKVSQL [DOCK4, Q8N1I0] . Reported pKd?
Outgoing: below the threshold
